Assay: Decomposition of prodrugs in mouse plasma in vitro (HPLC of released propofol or other substituted phenol)
Format: in vitro ADME
Settings: 37° C., 30 s
Recorded Decomposition rates of prodrugs for the following compounds
Metric Name: Decomposition rates of prodrugs (%)

Compound | Metric Name | Reported Measurement
CC(C)c1cccc(C(C)C)c1OC(=O)COC(=O)[C@H](C)N | Decomposition rates of prodrugs | 94
CC(C)c1cccc(C(C)C)c1OC(=O)COC(=O)[C@@H](C)N(C)C.Cl | Decomposition rates of prodrugs | 89
CNCC(=O)OCC(=O)Oc1c(C(C)C)cccc1C(C)C | Decomposition rates of prodrugs | 87
CC(C)c1cccc(C(C)C)c1OC(=O)COC(=O)CN1CCOCC1 [Compound 27] | Decomposition rates of prodrugs | 60
CC(C)C[C@@H](N)C(=O)OCC(=O)Oc1c(C(C)C)cccc1C(C)C.Cl | Decomposition rates of prodrugs | 92
CC(C)c1cccc(C(C)C)c1OC(=O)COC(=O)CN1CCCCC1 | Decomposition rates of prodrugs | 88
CC(C)c1cccc(C(C)C)c1OC(=O)COC(=O)CN1CCCC1.Cl | Decomposition rates of prodrugs | 91
CC(C)c1cccc(C(C)C)c1OC(=O)COC(=O)CN1CCOCC1 [Compound 23] | Decomposition rates of prodrugs | 89
CC(C)c1cccc([C@H](C)C2CC2)c1OC(=O)COC(=O)CN1CCOCC1.Cl | Decomposition rates of prodrugs | 55
CC(C)c1cccc(C(C)C)c1OC(=O)COC(=O)CN1CCC1.Cl | Decomposition rates of prodrugs | 75
CC(C)c1cccc(C(C)C)c1OC(=O)COC(=O)CN | Decomposition rates of prodrugs | 97
CC(C)c1cccc(C(C)C)c1OC(=O)COC(=O)CN(C)C | Decomposition rates of prodrugs | 51
CC(C)c1cccc(C(C)C)c1OC(=O)COC(=O)CN1CCOCC1 [Compound 22] | Decomposition rates of prodrugs | 58
CC(C)c1cccc(C(C)C)c1OC(=O)COC(=O)CN1CCN(C)CC1 | Decomposition rates of prodrugs | 91

----------
Assay: Decomposition of prodrugs in mouse plasma in vitro (HPLC of released propofol or other substituted phenol)
Format: in vitro ADME
Settings: 37° C., 1 min

Structure Notation | Unit Info | Decomposition rates of prodrugs
CC(C)c1cccc(C(C)C)c1OC(=O)COC(=O)CN(C)C | % | 67
CC(C)c1cccc(C(C)C)c1OC(=O)COC(=O)CN1CCC1.Cl | % | 92
CC(C)c1cccc(C(C)C)c1OC(=O)COC(=O)CN | % | 100
CC(C)c1cccc(C(C)C)c1OC(=O)COC(=O)CN1CCCC1.Cl | % | 100
